The reported measurements were obtained from paper PMC5323440.

System: TNBS-induced colitis
method: TNBS-induced experimental colitis: clinical activity score rate
Type: in vivo, Wistar rats
measurement_context: day 11, after oral treatment day 6 to 10; score 0-4
Marks after values point to notes of the source that are not given here.
reported_metric: Clinical activity score rate, 11 d

A selection of reference data follows.
N[C@@H](Cc1c[nH]c2ccccc12)C(=O)O	1.88 ± 1.17 ^a
O=C(O)c1cc(/N=N/c2ccc(S(=O)(=O)Nc3ccccn3)cc2)ccc1O	0.38 ± 0.60 ^e
N[C@@H](Cc1c[nH]cn1)C(=O)O	2.00 ± 1.00^NS
N[C@H](Cc1ccccc1)C(=O)O	2.27 ± 1.13^NS
C[C@H]1[C@H](C)CC[C@]2(C)CC[C@]3(C)C(=CC[C@@H]4[C@@]5(C)CC[C@@H](O)[C@](C)(C(=O)O)[C@@H]5CC[C@]43C)[C@H]12	0.99 ± 1.10 ^e

The compound identified as N[C@@H](Cc1ccc(O)cc1)C(=O)O registered its Clinical activity score rate, 11 d at 2.33 ± 1.45^NS
